Tested system: T1, human RGMc (human, UniProt Q6ZVN8 36-400, limits assumed)
T1 construct: also called hRGMc
T1 sequence: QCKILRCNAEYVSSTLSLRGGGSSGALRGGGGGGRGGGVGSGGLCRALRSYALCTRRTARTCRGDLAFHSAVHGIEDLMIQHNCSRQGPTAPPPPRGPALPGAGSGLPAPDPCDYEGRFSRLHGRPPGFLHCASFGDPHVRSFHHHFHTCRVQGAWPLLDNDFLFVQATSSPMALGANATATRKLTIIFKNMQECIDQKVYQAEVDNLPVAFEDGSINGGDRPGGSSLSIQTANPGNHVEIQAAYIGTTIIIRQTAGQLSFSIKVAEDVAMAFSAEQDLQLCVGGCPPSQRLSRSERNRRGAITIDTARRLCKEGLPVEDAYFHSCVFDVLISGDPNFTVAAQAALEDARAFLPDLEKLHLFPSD
Measurement description: BIAcore; Ab captured via anti-hIgG Fc on CM5 chip, antigen injected; 1:1 Langmuir fit
Entries and their measured koff follow.
Provide only the numeric value, understood in s⁻¹.

Please review the entries below; each comes with its answer.
For record RGMA-h5F9pJP302/pJP303 hIgG1/K mut (antibody, V domains shown, Tested as IgG; also called h5F9.AM11; H5F9AM.11) VH: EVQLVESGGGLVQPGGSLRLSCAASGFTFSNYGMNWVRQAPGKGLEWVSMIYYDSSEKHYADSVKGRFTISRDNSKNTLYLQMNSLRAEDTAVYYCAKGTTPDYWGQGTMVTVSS VL: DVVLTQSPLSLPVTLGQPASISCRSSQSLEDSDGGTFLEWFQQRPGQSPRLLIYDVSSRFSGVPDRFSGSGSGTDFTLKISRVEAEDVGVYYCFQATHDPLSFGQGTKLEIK the listed koff is 0.0014

For record RGMA-h5F9Vh7a/pJP291 hIgG1/K mut (antibody, V domains shown, Tested as IgG; also called h5F9.AM4; H5F9AM.4) VH: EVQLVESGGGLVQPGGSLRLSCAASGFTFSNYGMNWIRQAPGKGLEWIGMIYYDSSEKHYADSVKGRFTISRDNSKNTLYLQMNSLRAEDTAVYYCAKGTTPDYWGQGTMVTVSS VL: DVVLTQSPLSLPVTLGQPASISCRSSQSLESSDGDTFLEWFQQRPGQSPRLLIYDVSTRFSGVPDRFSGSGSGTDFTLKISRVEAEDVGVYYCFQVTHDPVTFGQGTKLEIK the listed koff is 0.00104

For record RGMA-h5F9pJP297/pJP298 hIgG1/K mut (antibody, V domains shown, Tested as IgG; also called h5F9.AM8; H5F9AM.8) VH: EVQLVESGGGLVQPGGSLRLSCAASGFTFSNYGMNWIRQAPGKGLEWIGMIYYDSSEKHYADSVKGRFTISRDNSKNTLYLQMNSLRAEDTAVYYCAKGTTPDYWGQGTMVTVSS VL: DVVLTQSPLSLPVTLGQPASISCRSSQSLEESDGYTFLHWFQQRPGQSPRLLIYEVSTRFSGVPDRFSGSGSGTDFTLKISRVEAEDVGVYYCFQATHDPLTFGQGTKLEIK the listed koff is 0.00039

Continuing:
For record RGMA-h5F9pJP297/pJP299 hIgG1/K mut (antibody, V domains shown, Tested as IgG; also called h5F9.AM9; H5F9AM.9) VH: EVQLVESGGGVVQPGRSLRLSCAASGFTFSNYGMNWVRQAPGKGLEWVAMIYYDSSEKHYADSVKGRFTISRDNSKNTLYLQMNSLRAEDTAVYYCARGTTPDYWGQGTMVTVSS VL: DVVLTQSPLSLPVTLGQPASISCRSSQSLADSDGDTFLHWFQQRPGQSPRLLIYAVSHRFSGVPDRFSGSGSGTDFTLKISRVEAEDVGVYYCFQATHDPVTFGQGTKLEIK the listed koff is 0.0107
